Record form. Attribute: RLU. Fill in for each entry.
TESTED_TARGET: mouse Tas2r144 (Mus musculus, UniProt Q7TQB8)
Construct: expressed in transfected cells; host or cells: HEK293T-Gα16gust44
Sequence (Q7TQB8 whole entry): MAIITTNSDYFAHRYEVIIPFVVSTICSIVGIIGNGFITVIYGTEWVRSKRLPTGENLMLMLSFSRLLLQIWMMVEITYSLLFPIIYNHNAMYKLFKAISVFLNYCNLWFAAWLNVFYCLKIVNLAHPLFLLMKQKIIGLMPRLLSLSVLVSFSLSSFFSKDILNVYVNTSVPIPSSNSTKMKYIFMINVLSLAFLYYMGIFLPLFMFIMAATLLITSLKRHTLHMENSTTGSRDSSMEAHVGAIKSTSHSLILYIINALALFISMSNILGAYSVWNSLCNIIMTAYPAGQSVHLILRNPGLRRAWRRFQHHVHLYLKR
ASSAY_DETAILS: Calcium imaging assay (FLIPR), HEK293T-Gα16gust44 cells transfected with mouse Tas2r144
Format: cell-based
CONDITION_NOTES: Time 116.781 s
Only the number, expressed in RLU, is required.

Form field: reported RLU of C[C@H](CCC(=O)NCCS(=O)(=O)O)[C@H]1CC[C@H]2[C@@H]3[C@H](O)C[C@@H]4C[C@H](O)CC[C@]4(C)[C@H]3C[C@H](O)[C@]12C [Taurocholic Acid, taurocholic acid]
478.013

Form field: reported RLU of C[C@H](CCC(=O)NCC(=O)O)[C@H]1CC[C@H]2[C@@H]3[C@H](O)C[C@@H]4C[C@H](O)CC[C@]4(C)[C@H]3C[C@H](O)[C@]12C [Glycocholic Acid, glycocholic acid]
301.02

Form field: reported RLU of C[C@H](CCC(=O)O)[C@H]1CC[C@H]2[C@@H]3[C@H](O)C[C@@H]4C[C@H](O)CC[C@]4(C)[C@H]3C[C@H](O)[C@]12C [Cholic Acid, cholic acid]
415.823

Form field: reported RLU of C[C@H](CCC(=O)NCCS(=O)(=O)O)[C@H]1CC[C@H]2[C@@H]3CC[C@@H]4C[C@H](O)CC[C@]4(C)[C@H]3CC[C@]12C [Taurolithocholic Acid, taurolithocholic acid]
386.704

###

TESTED_TARGET: mouse Tas2r105 (Mus musculus, UniProt Q9JKT4)
Construct: expressed in transfected cells; host or cells: HEK293T-Gα16gust44
Sequence (Q9JKT4 whole entry): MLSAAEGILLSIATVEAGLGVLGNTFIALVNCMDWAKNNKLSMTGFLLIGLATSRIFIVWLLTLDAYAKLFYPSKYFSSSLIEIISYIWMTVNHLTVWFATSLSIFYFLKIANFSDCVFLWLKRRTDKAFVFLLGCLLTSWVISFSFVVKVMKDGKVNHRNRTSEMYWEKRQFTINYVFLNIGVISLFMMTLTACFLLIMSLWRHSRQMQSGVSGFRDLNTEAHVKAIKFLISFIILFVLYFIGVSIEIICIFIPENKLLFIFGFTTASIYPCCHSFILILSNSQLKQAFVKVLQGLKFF
ASSAY_DETAILS: Calcium imaging assay (FLIPR), HEK293T-Gα16gust44 cells transfected with mouse Tas2r105
Type: cell-based
CONDITION_NOTES: Time 6 s
MEASURED_PARAMETER: RLU (RLU)
Only the number, expressed in RLU, is required.

Form field: reported RLU of C[C@H](CCC(=O)O)[C@H]1CC[C@H]2[C@@H]3[C@H](O)C[C@@H]4C[C@H](O)CC[C@]4(C)[C@H]3C[C@H](O)[C@]12C
2.675

Form field: reported RLU of C[C@H](CCC(=O)O)[C@H]1CC[C@H]2[C@@H]3CC[C@@H]4C[C@H](O)CC[C@]4(C)[C@H]3CC[C@]12C
-6.64

Form field: reported RLU of C[C@H](CCC(=O)NCC(=O)O)[C@H]1CC[C@H]2[C@@H]3[C@H](O)C[C@@H]4C[C@H](O)CC[C@]4(C)[C@H]3C[C@H](O)[C@]12C
-18.2123

Form field: reported RLU of C[C@H](CCC(=O)O)[C@H]1CC[C@H]2[C@@H]3CC[C@@H]4C[C@H](O)CC[C@]4(C)[C@H]3C[C@H](O)[C@]12C
-2.576

###

TESTED_TARGET: human TAS2R14 (Homo sapiens, UniProt Q9NYV8)
Construct: expressed in transfected cells; host or cells: HEK293T-Gα16gust44
Sequence (Q9NYV8 1-317): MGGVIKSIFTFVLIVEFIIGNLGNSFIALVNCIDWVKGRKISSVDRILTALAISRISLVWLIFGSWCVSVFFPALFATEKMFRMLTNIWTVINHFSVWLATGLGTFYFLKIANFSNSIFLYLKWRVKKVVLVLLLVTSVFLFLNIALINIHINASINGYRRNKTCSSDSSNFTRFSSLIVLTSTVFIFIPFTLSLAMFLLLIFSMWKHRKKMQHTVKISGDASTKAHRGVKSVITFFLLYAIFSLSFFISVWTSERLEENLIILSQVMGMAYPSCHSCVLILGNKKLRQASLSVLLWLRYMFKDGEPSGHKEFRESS
ASSAY_DETAILS: Calcium imaging assay (FLIPR), HEK293T-Gα16gust44 cells transfected with human TAS2R14
Assay type: cell-based
CONDITION_NOTES: TAS2R14 trace; Time (s) 116.797 (Chenodeoxycholic Acid 116.781)
Description: This set of bile acids was chosen because of their commercial availability in high purities, their diversity within the class of bile acids and their previous detection and quantitation in human blood. Stock solutions were prepared in DMSO. […] Measured data were negative control corrected by subtracting the signal of the mock-transfected cells and exported to Microsoft Excel using the FLIPR software ScreenWorks 4.2. […]
MEASURED_PARAMETER: RLU

Form field: reported RLU of C[C@H](CCC(=O)NCC(=O)O)[C@H]1CC[C@H]2[C@@H]3[C@H](O)C[C@@H]4C[C@H](O)CC[C@]4(C)[C@H]3C[C@H](O)[C@]12C [Glycocholic Acid, glycocholic acid]
927.195 RLU

Form field: reported RLU of C[C@H](CCC(=O)O)[C@H]1CC[C@H]2[C@@H]3[C@H](O)C[C@@H]4C[C@H](O)CC[C@]4(C)[C@H]3CC[C@]12C [Chenodeoxycholic Acid, chenodeoxycholic acid]
535.277 RLU

Form field: reported RLU of C[C@H](CCC(=O)NCCS(=O)(=O)O)[C@H]1CC[C@H]2[C@@H]3CC[C@@H]4C[C@H](O)CC[C@]4(C)[C@H]3CC[C@]12C [Taurolithocholic Acid, taurolithocholic acid]
373.414 RLU

Form field: reported RLU of C[C@H](CCC(=O)O)[C@H]1CC[C@H]2[C@@H]3[C@H](O)C[C@@H]4C[C@H](O)CC[C@]4(C)[C@H]3C[C@H](O)[C@]12C [Cholic Acid, cholic acid]
1265.61 RLU

Form field: reported RLU of C[C@H](CCC(=O)NCCS(=O)(=O)O)[C@H]1CC[C@H]2[C@@H]3[C@H](O)C[C@@H]4C[C@H](O)CC[C@]4(C)[C@H]3C[C@H](O)[C@]12C [Taurocholic Acid, taurocholic acid]
993.706 RLU
